experiment: Cytotoxicity against CRFK cells assessed as reduction in cell viability incubated for 24 hrs by MTT assay; type: toxicity, cell-based, Felis catus; conditions: cat
Recorded CC50 at 24 h for the following compounds
OBSERVED_PROPERTY: CC50 at 24 h (µM)

>>> recorded_measurement("Clc1nss/c1=N\\c1nccs1")
7.6
>>> recorded_measurement("COc1cccc(/N=c2\\ssnc2Cl)n1")
34
>>> recorded_measurement("CCOc1cccnc1/N=c1\\ssnc1Cl")
42
>>> recorded_measurement("O=[N+]([O-])c1cccnc1/N=c1\\ssnc1Cl")
21
>>> recorded_measurement("O=[N+]([O-])c1ccc(/N=c2\\ssnc2Cl)cc1")
31
>>> recorded_measurement("Clc1nss/c1=N\\c1cc(-c2ccccc2)nn1Cc1ccccc1")
37

Where do the numbers come from? From ChEMBL document CHEMBL5126585.
